Target: T1, human PD-L1 antigen (Beijing Sino Biological Inc, Catalog No. #10084-H08H-100) (human, UniProt Q9NZQ7 19-239)
T1 construct: Bought antigen; also called the antigen
T1 sequence (Q9NZQ7 19-239 limits assumed): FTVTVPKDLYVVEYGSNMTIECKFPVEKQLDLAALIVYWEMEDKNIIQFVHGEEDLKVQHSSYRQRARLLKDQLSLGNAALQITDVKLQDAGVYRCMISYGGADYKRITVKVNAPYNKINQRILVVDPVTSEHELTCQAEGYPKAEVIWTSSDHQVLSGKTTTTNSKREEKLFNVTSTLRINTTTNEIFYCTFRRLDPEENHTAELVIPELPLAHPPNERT
Test: BLI (ForteBIO Octet), antibody captured on sensor, human PD-L1 in solution
Observable: koff (s⁻¹)
Write the answer as a number in s⁻¹, unit excluded.

Look at this binder and give its reported koff. Antibody I-HX-5 (antibody, human IgG4 S228P, kappa, V domains shown) VH: VQLVQSGAEVKKPGASVKVSCKASGYTFTSYWMHWVRQAPGQGLEWMGAIYWAHSETSYNQKFKGRVTITAVTSASTAYMELSSLRSEDTAVYYCTHWLEVYFHGMDHWGQGTLVTVSS VL: DIQMTQSPSSLSASVGDRVTITCRASQNGINTLNWLQQKPGKAIKRLIYVTSSLDSGVPKRFSGSRSGSDYSLTISSLQPEDFATYYCLYYASYFFTFGQGTKLEIKR
3.27e-06
